method_description: small-molecule microarray binders of probe aWnt5a, primary screen, biochemical, biotinylated probe, 635/667 nm fluorescence (AID 1113);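 note: score merges 667 nm fluorescence intensity with signal-to-noise per printed feature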
condition_set: higher = more signal
For each entry below, report its composite z-score value.
Answers are plain numbers.

// solved cases for composite z-score follow
| molecule | composite z-score |
| --- | --- |
| C[N+](C)(C)CCCC[C@@H]1NC(=O)[C@H]2C[C@@H](C(=O)NCCCCCNC(=O)CS)[C@@H](c3ccc(O)cc3)N2C1=O | 0.0101 |
| C=C(/C(=C/C[C@H](OC(=O)c1ccncc1)c1ccccc1OCCO)c1cc(C(=O)OC)ccc1OC)C(C)C | 0.132 |
| CCOC(=O)C1=CC[C@@H](c2ccccc2)N(S(=O)(=O)c2ccc(C)cc2)[C@H]1C#N | 0.0044 |
| CC(=O)NCCCC[C@@H]1NC(=O)[C@H]2C[C@@H](C(=O)NCCCCCC[N+](C)(C)C)[C@@H](c3ccc(O)cc3)N2C1=O | -0.107 |
| COC(=O)[C@@]1(Cc2ccc(OC)cc2)[C@H]2c3cc(C(=O)N(C)C)n(Cc4ccsc4Br)c3C[C@H]2CN1C(=O)c1ccccc1 | 0.281 |

Hey, can you go through the list below and give me composite z-score for every item?
1. CCOC(=O)C1=C(C(=O)OCC)N(S(=O)(=O)CC[Si](C)(C)C)[C@H](c2ccccc2)CC1
2. COc1ccccc1CN1C(=O)c2ccccc2[C@](Cc2ccccc2I)(C(=O)NCCCN(C)C)[C@@H]1c1ccc(CO)cc1
3. COCCOC(=O)N1C(=O)[C@@]2(c3cc(C#CCC(C(=O)OC)C(=O)OC)ccc31)[C@H](C(N)=O)[C@H]1C(=O)O[C@H](c3ccccc3)[C@H](c3ccccc3)N1[C@@H]2c1ccc(OCCO)cc1

0.0307
0.134
-0.0161

Hey, can you go through the list below and give me composite z-score for every item?
1. COC(=O)[C@@]1(Cc2ccccc2)[C@H]2c3cc(C(=O)N4CCCC4)n(Cc4ccc(C(F)(F)F)nc4)c3C[C@H]2CN1C(=O)c1ccccc1
2. O=C(NCC(F)(F)F)[C@@H]1c2ccccc2C(=O)N(CC23CC4CC(CC(C4)C2)C3)[C@H]1c1ccc(CO)cc1
3. C=CC[C@@]12N=C(c3ccc(OCCCO)cc3)O[C@@H]1c1ccccc1N(Cc1ccccc1)C2=O
4. COCC(=C=CC[C@@H](O)c1cccc(OCCO)c1)C[C@@H](O)COCc1ccccc1
5. O=C1OCCC/C=C\[C@H]2OC34C=CCN(Cc5ccccc5)C(=O)[C@H]3N(CCCCCO)C(=O)[C@@H]4C12 (some centres undefined)
6. Cc1c(NC(=O)/C(C#N)=C/c2ccc(Cl)cc2)c(=O)n(-c2ccccc2)n1C

0.288
-0.0398
0.127
0.284
-0.169
-0.0869

Reference for the values: PubChem BioAssay
